pIC50: −log10 of the molar value.
Here is a set of molecules with reported pIC50 for Dihydroorotate dehydrogenase (quinone), mitochondrial (Homo sapiens, UniProt Q02127), compiled from the literature.
recorded_endpoint: pIC50

As a guide, the following entries are already answered.
> print(dat)
                                   molecule                              assay.system  reported.value
1  O=C(O)c1cccc2[nH]c(-c3cccc(Oc4ccccc4)c3)nc12  Dihydroorotate dehydrogenase (quinone), mitochondrial (Homo sapiens, UniProt Q02127)            5.14
2  C=C(C)c1cn(-c2cc(F)ccc2F)c(=O)c2cc(F)c(-n3nc(CO)n(CC)c3=O)cc12  Dihydroorotate dehydrogenase (quinone), mitochondrial (Homo sapiens, UniProt Q02127)            9.02
3  CCn1c(CO)nn(-c2cc(O[C@@H](C)C(F)(F)F)c(/C=C/c3cccnc3OC)cc2F)c1=O  Dihydroorotate dehydrogenase (quinone), mitochondrial (Homo sapiens, UniProt Q02127)            8.05

[A] O=C(O)c1cccn2nc(-c3ccc(-c4ccccc4)cc3)nc12
[B] CCn1c(CO)nn(-c2cc3c([C@H](C)C(F)(F)F)nn(-c4ccccc4C)c(=O)c3cc2F)c1=O (single isomer, unassigned)
[C] O=C(O)c1cc(F)cc2[nH]c(-c3c(F)cc(-c4ccccc4)cc3F)nc12
[D] Cc1ccc(Nc2ccc(-c3ccncc3Cl)nc2)c(C(=O)O)c1
[in] Rank descending by pIC50. Give the labels in the order requested.
[out] B, D, C, A

[P] C=C(C)C1CN(c2c(F)cccc2Cl)C(=O)c2ccc(-n3nc(CO)n(CC)c3=O)cc21 (racemic)
[Q] C=C(C)c1cn(-c2c(C)cccc2F)c(=O)c2cc(F)c(-n3nc(CO)n(CC)c3=O)cc12
[R] O=C(O)c1cc(C2CC2)ccc1Nc1ccc(-c2ccccc2Cl)nc1
[S] O=C(O)c1cccc2[nH]c(-c3ccc(Oc4c(F)cccc4F)cc3)nc12
[T] C=C(C)c1nn(-c2c(F)cccc2Cl)c(=O)c2cc(F)c(-n3nc(CO)n(CC)c3=O)cc12
[in] Reorder the items by pIC50, least to greatest. Ranked list of labels, please, in the requested order.
[out] S, R, P, Q, T
